- Study System: HLA-B*08:01 (human)
- Protocol Details: REVEAL MHC-peptide binding assay, recombinant HLA-B*08:01
- Stated Conditions: remark: other sources report otherwise
Measured Attribute: In Vitro Score (% of positive control peptide)

Below, each entry is followed by its recorded In Vitro Score (% of positive control peptide) result.
{"Binder": "AFIIFWVAR [… (SEQ ID NO: 45)]", "Assay Result": 0.2}
{"Binder": "IIFWVHRGR [… (SEQ ID NO: 40)]", "Assay Result": 0.2}
{"Binder": "IIFWVLRGR [… (SEQ ID NO: 33)]", "Assay Result": 0.4}
{"Binder": "WVQRGNKKL [… (SEQ ID NO: 88)]", "Assay Result": 32}
{"Binder": "VAFIIFWVS [… (SEQ ID NO: 23)]", "Assay Result": 0.1}
{"Binder": "WVKRGNKKL [… (SEQ ID NO: 76)]", "Assay Result": 65.9}
{"Binder": "IIFWVKRGL [… (SEQ ID NO: 61)]", "Assay Result": 1.7}
{"Binder": "IIFWVKRGR [… (SEQ ID NO: 19)]", "Assay Result": 0}

[I] IFWVKRGAK [… (SEQ ID NO: 70)]
[II] IIFWVSRGR [… (SEQ ID NO: 26)]
Sorting by In Vitro Score (% of positive control peptide) in descending order, would I or II appear first? Pick one and reply with its label.
I
